The reported numbers originate from patent US8871753B2.

# target.entity: UniProtKB P29597
# Sequence (P29597 whole entry): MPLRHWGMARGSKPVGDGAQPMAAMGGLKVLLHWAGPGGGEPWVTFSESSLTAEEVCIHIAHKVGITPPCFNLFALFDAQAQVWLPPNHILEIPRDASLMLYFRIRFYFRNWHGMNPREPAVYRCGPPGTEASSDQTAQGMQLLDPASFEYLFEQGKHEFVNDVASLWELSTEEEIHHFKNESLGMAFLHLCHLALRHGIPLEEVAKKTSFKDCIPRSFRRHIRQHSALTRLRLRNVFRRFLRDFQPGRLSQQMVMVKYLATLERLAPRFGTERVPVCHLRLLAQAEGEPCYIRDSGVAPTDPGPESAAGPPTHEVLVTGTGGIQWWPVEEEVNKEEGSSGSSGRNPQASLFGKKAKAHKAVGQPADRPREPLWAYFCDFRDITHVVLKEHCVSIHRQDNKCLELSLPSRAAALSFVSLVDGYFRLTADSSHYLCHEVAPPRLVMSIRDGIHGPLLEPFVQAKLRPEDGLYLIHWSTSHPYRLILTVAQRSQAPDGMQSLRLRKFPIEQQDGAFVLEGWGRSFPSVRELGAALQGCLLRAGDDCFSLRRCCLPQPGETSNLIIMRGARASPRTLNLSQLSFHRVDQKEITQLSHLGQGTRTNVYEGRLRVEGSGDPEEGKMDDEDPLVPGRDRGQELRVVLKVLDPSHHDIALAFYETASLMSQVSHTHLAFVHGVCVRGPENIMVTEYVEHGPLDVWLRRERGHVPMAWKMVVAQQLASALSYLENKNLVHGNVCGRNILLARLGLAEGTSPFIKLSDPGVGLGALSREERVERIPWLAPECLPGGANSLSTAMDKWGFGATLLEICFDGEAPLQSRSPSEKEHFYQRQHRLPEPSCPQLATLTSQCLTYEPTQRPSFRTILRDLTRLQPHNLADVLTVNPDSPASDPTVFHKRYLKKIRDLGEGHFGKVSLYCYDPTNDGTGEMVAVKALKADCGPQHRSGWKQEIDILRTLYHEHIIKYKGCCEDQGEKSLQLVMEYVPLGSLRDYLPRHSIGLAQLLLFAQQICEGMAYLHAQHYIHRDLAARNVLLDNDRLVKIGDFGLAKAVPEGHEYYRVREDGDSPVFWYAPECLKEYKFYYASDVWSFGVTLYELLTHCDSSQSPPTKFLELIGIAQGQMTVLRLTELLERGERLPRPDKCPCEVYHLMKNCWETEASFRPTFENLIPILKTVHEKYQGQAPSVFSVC
# measurement.protocol: TYK2 kinase inhibition (Table A1)
# Assay type: biochemical
reported.endpoint: IC50

[[record]]
compound = "N#Cc1ccc(S(=O)(=O)N2CCC(CC(=O)Nc3ccc4cc3CCc3cncc(c3)Nc3ncc(Cl)c(n3)N4)CC2)cc1 [Example A199, bis(trifluoroacetate)]"
value = "> 200 nM"

[[record]]
compound = "CC(C)c1cc(C(=O)N2CCC(CC(=O)Nc3ccc4cc3CCc3cncc(c3)Nc3ncc(Cl)c(n3)N4)CC2)no1 [Example A214, bis(trifluoroacetate)]"
value = "> 200 nM"

[[record]]
compound = "Cc1nccc(N2CCC(CC(=O)Nc3ccc4cc3CCc3cncc(c3)Nc3ncc(Cl)c(n3)N4)CC2)n1 [Example A182, tris(trifluoroacetate)]"
value = "> 200 nM"

